# Lookup of reported Post-emergence action, Euphorbia keyed by entry
# Test system: monocotyledonous and dicotyledonous test plants
# ASSAY_PROCEDURE: Post-emergence herbicidal action
# Type: in vivo
# ASSAY_CONDITIONS: Euphorbia, 250 g a.i./ha, about 18 days, rating 0-10
REPORTED_ENDPOINT: Post-emergence action, Euphorbia

molecule=Cc1nn(Cc2nc(C(F)(F)F)ccc2C(=O)C2=C(O)C(C)(C)C(=O)C(C)(C)C2=O)c(=O)o1 result=8
molecule=Cc1nn(Cc2nc(C(F)(F)F)ccc2C(=O)c2cnn(C)c2O)c(=O)o1 result=8
molecule="CCOc1nn(Cc2nc(C(F)(F)F)ccc2C(=O)C2=C(O)CCCC2=O)c(=O)n1C [Compound A1.037]" result=8
molecule="CCN1C(=O)N(Cc2nc(C(F)(F)F)ccc2C(=O)C2=C(O)CCCC2=O)C(=O)C1C (racemic)" result=8
molecule=COc1nn(Cc2nc(C(F)(F)F)ccc2C(=O)C2=C(O)CCCC2=O)c(=O)s1 result=8
molecule="COc1nn(Cc2nc(C(F)(F)F)ccc2C(=O)C2=C(O)C3CCC(C3)C2=O)c(=O)s1 (stereo not shown)" result=8
molecule=COc1nn(Cc2nc(C(F)(F)F)ccc2C(=O)c2cnn(C)c2O)c(=O)n1C result=9
molecule=CN1CCN(Cc2nc(C(F)(F)F)ccc2C(=O)C2=C(O)CCCC2=O)C1=S result=9
molecule="CCN1C(=O)N(Cc2nc(C(F)(F)F)ccc2C(=O)C2=C(O)C(C)(C)C(=O)C(C)(C)C2=O)C(=O)C1C (stereo not shown)" result=7
molecule=CC(C)c1cn(-c2ccccc2)c(=O)n1Cc1nc(C(F)(F)F)ccc1C(=O)c1cnn(C)c1O result=7
molecule=COc1nn(Cc2nc(C(F)(F)F)ccc2C(=O)C2=C(O)CCCC2=O)c(=O)n1C1CC1 result=8
molecule=COc1nn(Cc2nc(C(F)(F)F)ccc2C(=O)C2=C(O)CCCC2=O)c(=O)n1C result=9
molecule=CC(C)N1CC(=O)N(Cc2nc(C(F)(F)F)ccc2C(=O)c2cnn(C)c2O)C1=O result=7
molecule="CCOc1nn(Cc2nc(C(F)(F)F)ccc2C(=O)C2=C(O)CCCC2=O)c(=O)n1C [Compound A1.043]" result=7
molecule="Cn1ncn(Cc2nc(C(F)(F)F)ccc2C(=O)C2=C(O)C3CCC(C3)C2=O)c1=O (stereo not shown)" result=9
molecule=Cn1ncc(C(=O)c2ccc(C(F)(F)F)nc2Cn2c(=O)oc3cc(Cl)ccc32)c1O result=9
molecule=Cc1nn(Cc2nc(C(F)(F)F)ccc2C(=O)C2=C(O)CCCC2=O)c(=O)s1 result=8
molecule=COc1nn(Cc2nc(C(F)(F)F)ccc2C(=O)c2cnn(C)c2O)c(=O)n1C1CC1 result=9
molecule="Cc1nn(CCOCc2nc(C(F)(F)F)ccc2C(=O)C2=C(O)C3CCC(C3)C2=O)c(=O)s1 (stereo not shown)" result=7
molecule=CCOc1nn(Cc2nc(C(F)(F)F)ccc2C(=O)c2cnn(C)c2O)c(=O)n1CC result=9
molecule=O=C1CCCC(O)=C1C(=O)c1ccc(C(F)(F)F)nc1Cn1sccc1=O result=10
molecule=CSC(=O)n1c(C)cc(=O)n1Cc1nc(C(F)(F)F)ccc1C(=O)c1cnn(C)c1O result=9
molecule="Cc1nn(CCOCc2nc(C(F)(F)F)ccc2C(=O)C2=C(O)C3CCC(C3)C2=O)c(=O)o1 (stereo not shown)" result=7
molecule=O=C1CCCC(O)=C1C(=O)c1ccc(C(F)(F)F)nc1Cn1sc(Cl)cc1=O result=8
molecule="Cc1nn(Cc2nc(C(F)(F)F)ccc2C(=O)C2=C(O)C3CCC(C3)C2=O)c(=O)o1 (stereo not shown)" result=7
